# system under test: GSK3β (Homo sapiens)
# Sequence (P49841 whole entry, species assumed): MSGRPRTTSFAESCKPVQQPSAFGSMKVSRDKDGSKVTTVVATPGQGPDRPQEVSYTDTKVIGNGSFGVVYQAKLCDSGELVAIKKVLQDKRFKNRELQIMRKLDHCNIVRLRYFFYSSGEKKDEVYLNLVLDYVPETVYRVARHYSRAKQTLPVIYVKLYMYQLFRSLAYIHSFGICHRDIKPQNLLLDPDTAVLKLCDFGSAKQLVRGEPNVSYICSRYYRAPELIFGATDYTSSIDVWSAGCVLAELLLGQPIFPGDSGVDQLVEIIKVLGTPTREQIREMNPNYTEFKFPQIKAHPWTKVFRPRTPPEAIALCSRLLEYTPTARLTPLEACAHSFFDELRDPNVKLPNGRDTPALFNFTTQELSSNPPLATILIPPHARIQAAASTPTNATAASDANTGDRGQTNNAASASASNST
# protocol: GSK3β ATP depletion assay
# Format: biochemical
# recorded conditions: read-out: GSK3b IC50
# Lookup of reported IC50 keyed by entry
Use nM as the unit, but write only the number.

These solved cases illustrate the format of a correct answer.
compound	IC50 [nM]
Nc1cnc(-c2c(F)cccc2F)nc1C(=O)Nc1cnccc1[C@@H]1C[C@H](O)[C@]2(O)CCC[C@@H]2O1	2670
N#CC[C@H]1O[C@@H](c2ccncc2NC(=O)c2ccc(C#N)c(-c3c(F)cccc3F)n2)CC[C@@H]1O	4310
Nc1cnc(-c2c(F)cccc2F)nc1C(=O)Nc1cnccc1[C@H]1C[C@@H](N)[C@@]2(O)CCC[C@H]2O1	558
C[C@@H]1C[C@H](N)C[C@H](c2ccncc2NC(=O)c2ccc(F)c(-c3c(F)cccc3F)n2)O1	12300
C[C@H]1O[C@@H](c2ccncc2NC(=O)c2nc(-c3nccs3)ccc2N)C[C@@H](O)[C@]1(C)O	1320
C[C@H]1C[C@@H](O)C[C@@H](c2ccncc2NC(=O)c2ccc(F)c(-c3c(F)cccc3F)n2)O1 (stereo in doubt)	276

So what does the record say about IC50 for `C=C[C@H]1OC(c2ccncc2NC(=O)c2nc(-c3c(F)cccc3F)c(F)cc2N)=C[C@@H](O)[C@@H]1O` ? 660

Which IC50 value belongs to `CC[C@]1(O)[C@H](O)C[C@H](c2ccncc2NC(=O)c2nc(-c3ccnnc3)ccc2N)O[C@@H]1C` ? 67.4

Query (compound): C[C@@H]1O[C@H](c2ccncc2NC(=O)c2csc(-c3c(F)cccc3F)n2)C[C@H](O)[C@H]1O (stereo in doubt) ; field requested: IC50 76
